Tested On: Growth factor receptor-bound protein 2 (Homo sapiens) (UniProt P62993)
Sequence (P62993 whole entry, looked up, the tested form may be a part): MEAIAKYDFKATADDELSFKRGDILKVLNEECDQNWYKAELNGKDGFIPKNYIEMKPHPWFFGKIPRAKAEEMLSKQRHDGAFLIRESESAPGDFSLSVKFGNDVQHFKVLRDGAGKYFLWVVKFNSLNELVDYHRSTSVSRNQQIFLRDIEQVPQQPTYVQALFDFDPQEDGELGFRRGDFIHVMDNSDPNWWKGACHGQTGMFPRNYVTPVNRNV
Experiment Description: Binding affinity to Grb2-SH2 domain (53 to 163 residues) (unknown origin) expressed in Escherichia coli assessed as change in entropy by ITC analysis
Square brackets hold non-standard residues; d marks the D form. Peptide text beside a SMILES is read from it. * marks the point of attachment. pY = N[C@@H](Cc1ccc(OP(=O)(O)O)cc1)C(=O)O; NHPhenethyl = c1ccc(CCN*)cc1; Ac6c = NC1(C(=O)O)CCCCC1

# Compound, -TdeltaS
records = [
    ("CC(=O)N[C@@H](Cc1ccc(OP(=O)(O)O)cc1)C(=O)NC1(C(=O)N[C@@H](CC(N)=O)C(=O)NCCCCCc2ccccc2)CCCCC1", "-2.3 kcal/mol"),
    ("CC(=O)N[C@@H](Cc1ccc(OP(=O)(O)O)cc1)C(=O)NC1(C(=O)N[C@@H](CC(N)=O)C(=O)NCCCc2ccccc2)CCCCC1", "-1.3 kcal/mol"),
    ("CC(=O)N[C@@H](Cc1ccc(OP(=O)(O)O)cc1)C(=O)NC1(C(=O)N[C@@H](CC(N)=O)C(=O)NCCc2cn(C)c3ccccc23)CCCCC1", "-2 kcal/mol"),
    ("CC(=O)N[C@@H](Cc1ccc(OP(=O)(O)O)cc1)C(=O)NC1(C(=O)N[C@@H](CC(N)=O)C(=O)NCCc2ccccc2)CCCCC1 (Ac-[pY]-[Ac6c]-Asn-NHPhenethyl)", "-2.1 kcal/mol"),
    ("CC(=O)N[C@@H](Cc1ccc(OP(=O)(O)O)cc1)C(=O)NC1(C(=O)N[C@@H](CC(N)=O)C(=O)NCCCc2ccc(C)cc2)CCCCC1", "-1.7 kcal/mol"),
]
